B1: EEHEE_rd4_0469 (parent)
chain: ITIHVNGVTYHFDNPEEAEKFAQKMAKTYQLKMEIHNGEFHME

# Variants of: B1
# ASSAY_DETAILS: folding stability dG (cDNA display proteolysis); higher = more stable
# MEASUREMENT_SETUP: PBS, room temperature
folding stability dG vs 1 kcal/mol: at or above is true (1), below is false (0).

Use the examples below as a reference point.
| SEQUENCE_CODE | CAT |
| --- | --- |
| ITIHVNGVTYHFDNPEEAEKFAQKMAWTYQLKMEIHNGEFHME | true (1) |
| ITIHVNGVTYHFDNPEEAEKFAQKMAKTYQLKIEIHNGEFHME | true (1) |
| ITIHVNGVTFHFDNPEEAEKFAQKMAKTYQLKMEIHNGEFHME | true (1) |

Kindly determine if folding stability dG recorded for ITIHVNGVTYHFDNPEEPEKFAQKMAKTYQLKMEIHNGEFHME is above or exactly 1 kcal/mol.
false (0)

Kindly determine if folding stability dG recorded for ITIHVNGVTYHFDNFEEAEKFAQKMAKTYQLKMEIHNGEFHME is above or exactly 1 kcal/mol.
true (1)

Kindly determine if folding stability dG recorded for ITIHVNGVTYHFDNPEEAEAFAQKMAKTYQLKMEIHNGEFHME is above or exactly 1 kcal/mol.
true (1)

The origin of these recorded values is the MegaScale stability set (Tsuboyama et al. 2023).
